Assayed Target: Cholinesterase (Equus caballus)
Sequence (P81908 whole entry): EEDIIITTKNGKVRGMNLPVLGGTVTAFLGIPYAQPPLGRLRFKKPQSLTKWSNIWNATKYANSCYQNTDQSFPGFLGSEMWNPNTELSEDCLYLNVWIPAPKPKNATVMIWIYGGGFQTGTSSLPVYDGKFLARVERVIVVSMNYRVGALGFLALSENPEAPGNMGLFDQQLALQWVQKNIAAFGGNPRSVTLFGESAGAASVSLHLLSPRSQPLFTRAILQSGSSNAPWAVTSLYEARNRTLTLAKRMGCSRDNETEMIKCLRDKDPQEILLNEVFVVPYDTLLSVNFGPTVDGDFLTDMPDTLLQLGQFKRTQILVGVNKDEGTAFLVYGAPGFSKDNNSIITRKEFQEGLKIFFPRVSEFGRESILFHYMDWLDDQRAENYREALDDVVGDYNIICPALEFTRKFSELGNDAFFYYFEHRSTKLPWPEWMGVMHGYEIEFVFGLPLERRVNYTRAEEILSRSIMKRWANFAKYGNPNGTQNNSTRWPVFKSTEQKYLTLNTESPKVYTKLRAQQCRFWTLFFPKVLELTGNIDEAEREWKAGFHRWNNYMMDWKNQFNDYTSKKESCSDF
pIC50: −log10 of the molar value.
pIC50 class ranges: bottom range = under 4, center range = from 4 up to 5, top range = 5 and over

# Smiles Notation, Assayed Target, Label
data = [
    ("COc1cc2c(cc1OCCN1CCCCC1)C(=O)CC2", "Cholinesterase (Equus caballus)", "bottom range"),
    ("COc1cc2c(cc1OCCCCCCN1CCCCC1)C(=O)/C(=C\\c1ccncc1)C2", "Cholinesterase (Equus caballus)", "top range"),
    ("CCN(CC)CCCCOc1cc2c(cc1OC)C/C(=C/c1ccncc1)C2=O", "Cholinesterase (Equus caballus)", "center range"),
    ("COc1cc2c(cc1OCCCCCCCCCN1CCCCC1)C(=O)/C(=C\\c1ccncc1)C2", "Cholinesterase (Equus caballus)", "top range"),
    ("COc1cc2c(cc1O)C(=O)/C(=C\\c1ccncc1)C2", "Cholinesterase (Equus caballus)", "bottom range"),
    ("COc1cc2c(cc1O)C(=O)CC2", "Cholinesterase (Equus caballus)", "bottom range"),
    ("COc1cc2c(cc1OCCCN1CCCCC1)C(=O)CC2", "Cholinesterase (Equus caballus)", "center range"),
    ("COc1cc2c(cc1OCCCN1CCCCC1)C(=O)/C(=C\\c1ccncc1)C2", "Cholinesterase (Equus caballus)", "center range"),
    ("COc1cc2c(cc1OCCCCN1CCCC1)C(=O)/C(=C\\c1ccncc1)C2", "Cholinesterase (Equus caballus)", "center range"),
    ("COc1cc2c(cc1OCCN1CCCCC1)C(=O)/C(=C\\c1ccccc1)C2", "Cholinesterase (Equus caballus)", "top range"),
    ("COc1cc2c(cc1OCCCCCCn1ccnc1)C(=O)/C(=C\\c1ccncc1)C2", "Cholinesterase (Equus caballus)", "center range"),
]

----------
IC50 values recorded for Acetylcholinesterase (Electrophorus electricus, UniProt O42275)
Metric: IC50 (nM)

# Compound, Assayed Target, Measured Result
records = [
    ("COc1cc2c(cc1O)C(=O)CC2", "Acetylcholinesterase (Electrophorus electricus, UniProt O42275)", 92000),
    ("COc1cc2c(cc1OCCN1CCCCC1)C(=O)C(Cc1ccccc1)C2 (stereo not drawn)", "Acetylcholinesterase (Electrophorus electricus, UniProt O42275)", 1270),
    ("COc1cc2c(cc1OCCCCCCn1ccnc1)C(=O)/C(=C\\c1ccncc1)C2", "Acetylcholinesterase (Electrophorus electricus, UniProt O42275)", 2870),
    ("COc1cc2c(cc1OCCCCCN1CCCCC1)C(=O)/C(=C\\c1ccncc1)C2", "Acetylcholinesterase (Electrophorus electricus, UniProt O42275)", 288),
    ("COc1cc2c(cc1OCCN1CCCCC1)C(=O)/C(=C\\c1ccccc1)C2", "Acetylcholinesterase (Electrophorus electricus, UniProt O42275)", 9.1),
    ("COc1cc2c(cc1OCCCN1CCCCC1)C(=O)CC2", "Acetylcholinesterase (Electrophorus electricus, UniProt O42275)", 916),
    ("COc1cc2c(cc1OCCCCN1CCCCC1)C(=O)/C(=C\\c1ccncc1)C2", "Acetylcholinesterase (Electrophorus electricus, UniProt O42275)", 81),
    ("COc1cc2c(cc1OCCN1CCCCC1)C(=O)/C(=C\\c1ccncc1)C2", "Acetylcholinesterase (Electrophorus electricus, UniProt O42275)", 1.8),
    ("CCN(CC)CCCCOc1cc2c(cc1OC)C/C(=C/c1ccncc1)C2=O", "Acetylcholinesterase (Electrophorus electricus, UniProt O42275)", 205),
    ("COc1cc2c(cc1OCCCCCCN1CCCCC1)C(=O)/C(=C\\c1ccncc1)C2", "Acetylcholinesterase (Electrophorus electricus, UniProt O42275)", 232),
    ("COc1cc2c(cc1OCCCCN1CCCC1)C(=O)/C(=C\\c1ccncc1)C2", "Acetylcholinesterase (Electrophorus electricus, UniProt O42275)", 156),
    ("COc1cc2c(cc1OCCCCCCCCCN1CCCCC1)C(=O)/C(=C\\c1ccncc1)C2", "Acetylcholinesterase (Electrophorus electricus, UniProt O42275)", 734),
    ("CCN(CC)CCCCCCOc1cc2c(cc1OC)C/C(=C/c1ccncc1)C2=O", "Acetylcholinesterase (Electrophorus electricus, UniProt O42275)", 271),
    ("COc1cc2c(cc1O)C(=O)/C(=C\\c1ccncc1)C2", "Acetylcholinesterase (Electrophorus electricus, UniProt O42275)", 49600),
    ("COc1cc2c(cc1OCCN1CCCCC1)C(=O)/C(=C\\c1ccccn1)C2", "Acetylcholinesterase (Electrophorus electricus, UniProt O42275)", 4.4),
    ("COc1cc2c(cc1OCCCCCN1CCCCC1)C(=O)CC2", "Acetylcholinesterase (Electrophorus electricus, UniProt O42275)", 361),
    ("COc1cc2c(cc1OCCCN1CCCCC1)C(=O)/C(=C\\c1ccncc1)C2", "Acetylcholinesterase (Electrophorus electricus, UniProt O42275)", 62),
    ("COc1cc2c(cc1OCCN1CCCCC1)C(=O)CC2", "Acetylcholinesterase (Electrophorus electricus, UniProt O42275)", 3110),
]
